# methodNotes: Blood levels after administration to mice (LC-MS/MS)
# Type: in vivo
# measurementConditions: mouse, ip, 5 mg/kg, intraperitoneal injection, blood
measuredProperty: half-life

CC(=O)Nc1ccc(NC(=S)NC(=O)c2ccc(C(C)(C)C)cc2)cc1 ... ~1.3 h
